The reported measurements were obtained from patent US10179775B2.

Reported k2 second rate constant values for a set of compounds
assay: Tetrazine kinetics with cyclooctenes (stopped-flow spectrophotometry); assay type: physicochemical; settings: reaction with benzylamino tetrazine in PBS at 37° C.
API: value field is a number in dm^3 · mol^−1 · s^−1; no unit string.

Below, each entry is followed by its recorded k2 second rate constant result.
[[record]]
compound = "OCCOC1/C=C/COCOC1 (stereo not shown)"
outcome_measure = "k2 second rate constant"
value_unit = "dm^3 · mol^−1 · s^−1"
measured_value = 332

[[record]]
compound = "O=C1OC2CC/C=C/CCC2N1CCOCCO (stereo not shown)"
outcome_measure = "k2 second rate constant"
value_unit = "dm^3 · mol^−1 · s^−1"
measured_value = 29242


Given OC1CC/C=C/CCC1 (stereo not drawn) [TCO-OH, trans-cyclooctenol, reference compound] , state its recorded k2 second rate constant.
33585

Given OCCOC1/C=C/CCCCC1 (stereo not shown) [EG-TCO, (E)-2-(cyclooct-2-en-1-yloxy)ethanol] , state its recorded k2 second rate constant.
600
